Reference source: patent US6399561B1

Reported Initial changes per minute in A464 nm of methyl orange using rMtL by item:
- System: Recombinant Myceliophthora thermophila laccase (rMtL)
- Measurement Protocol: Bleaching of methyl orange using rMtL and NOH-type enhancing agents (initial bleaching rate)
- Format: biochemical
- Run Conditions: pH 7; rMtL solution diluted 1:300; 0.2 mM mediator; 30° C.; large negative numbers = best performance
Readout Name: Initial changes per minute in A464 nm of methyl orange using rMtL

{"columns": ["Compound", "Value Observed"],
 "data": [
  ["[O-][n+]1ccc2ccccc2c1 [Iso-quinoline-N-oxide]", "0.000 per minute"],
  ["ON=C(c1ccccn1)c1ccccn1", "0.001 per minute"],
  ["CCOc1ccc(N=[N+]([O-])c2ccc(OCC)cc2)cc1", "0.020 per minute"]
]}
